assay: in vitro; assay type: in vitro ADME; settings: human, plasma
MEASURED ATTRIBUTE: half-life

Exercise: Recorded half-life for CCOC(=O)C1CCC2C=CC3CCN(C(=O)C4CCC5C=CC6(CCCN6C(=O)C(Cc6ccccc6Cl)NC(C)=O)C(=O)N54)C3C(=O)N21 (stereo not shown) [Compound 4D, Ac-Phe(2-CI)-[ProM-2][ProM-1]-OEt] , please?
Key: > 4 h

* * *

Target: VASP-EVH1 (Homo sapiens)
Construct: VASP-EVH-1, EnaH-EVH-1 and EVL-EVH-1 domain
Sequence (P50552 2-113 limits assumed): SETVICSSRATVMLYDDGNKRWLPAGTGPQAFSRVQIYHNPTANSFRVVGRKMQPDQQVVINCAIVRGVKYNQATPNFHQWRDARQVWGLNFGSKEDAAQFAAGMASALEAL
Assay: Binding affinity by ITC, VASP-EVH1
Method: The substitution of the diproline units of the FPPPP motif with the Fmoc-ProMs was carried out. The binding affinities of the ligands to the domain were subsequently determined by means of isothermal titration calorimetry (ITC) on the basis of the dissociation constant (Kd) or the free enthalpy (ΔG) of the protein-ligand complexes. The results of the measurements were additionally checked by means of fluorescence titration (FT). […]
MEASURED ATTRIBUTE: Kd (µM)
// note: answer is a bare numeric in µM

Exercise: Query Kd on VASP-EVH1 (Homo sapiens) for CCOC(=O)[C@@H]1C[C@@H](CC)[C@@H]2C=C[C@H]3CCN(C(=O)[C@@H]4CC[C@H]5C=C[C@]6(CCCN6C(=O)[C@H](Cc6ccccc6Cl)NC(C)=O)C(=O)N54)[C@@H]3C(=O)N12 [Ac[2-Cl—F][ProM-2][ProM-13]-OEt, Ac-Phe(2-CI)-[ProM-2][ProM-13]-OEt]
Key: 0.49

Exercise: Param readout = Kd; param system = VASP-EVH1 (Homo sapiens); param query = CCOC(=O)C1CCC2C=CC3CCN(C(=O)C4CCC5C=CC6(CCCN6C(=O)C(Cc6ccccc6Cl)NC(C)=O)C(=O)N54)C3C(=O)N21 (centres unmarked) [Compound 4D, Ac-Phe(2-CI)-[ProM-2][ProM-1]-OEt] ; response: value
Key: 9.4
